Consider the following pKi data for Prostaglandin E2 receptor EP4 subtype (Homo sapiens, UniProt P35408), collected from several reports.
# pKi = -log10(concentration in molar units)

Solved entries (count: 2):
O=C(O)CCCCCCN1C(=O)CC[C@@H]1/C=C/[C@@H](O)CC1CCC1 | 8.38
CCCC/C=C\C=C\[C@H]1CCC(=O)N1CCc1ccc(C(=O)O)cc1 | 7.60

Entry under test: `O=C(O)/C=C/c1ccccc1/C=C/Cc1ccccc1.O=C(O)/C=C/c1ccccc1C/C=C/c1ccccc1` . Its pKi was 5.36

* * *

Consider the following Ki data for Prostaglandin E2 receptor EP4 subtype (Homo sapiens, UniProt P35408), collected from several reports.

Solved entries (count: 2):
O=C(O)COc1cccc2c1CCC[C@H]2N1CCC[C@@H]1c1nc(-c2ccccc2)c(-c2ccccc2)o1 | > 10 µM
O=C(O)c1csc(-n2nc(-c3ccccc3O)cc2C(F)(F)F)n1 | > 2.7 µM

Value (Ki, Prostaglandin E2 receptor EP4 subtype (Homo sapiens, UniProt P35408)) for record `O=C(NC/C=C1\CCCc2cnn(Cc3ccc(Cl)cc3Cl)c21)NS(=O)(=O)c1ccc(Cl)cc1` = > 10 µM

* * *

Consider the following Ki data for Prostaglandin E2 receptor EP4 subtype (Homo sapiens, UniProt P35408), collected from several reports.

Value (Ki, Prostaglandin E2 receptor EP4 subtype (Homo sapiens, UniProt P35408)) for record `CS(=O)(=O)c1cccc(-c2ccccc2CCC(=O)NS(=O)(=O)c2cccs2)c1` = > 100 µM

Value (Ki, Prostaglandin E2 receptor EP4 subtype (Homo sapiens, UniProt P35408)) for record `O=C(Cc1ccccc1)NS(=O)(=O)c1ccccc1-c1ccc(CN2C(=O)c3ccccc3CCc3ccccc32)cc1` = > 100 µM

Value (Ki, Prostaglandin E2 receptor EP4 subtype (Homo sapiens, UniProt P35408)) for record `Nc1c(-c2ccccc2)nn(-c2nc(C(=O)O)cs2)c1-c1ccccc1` = > 2.7 µM

Value (Ki, Prostaglandin E2 receptor EP4 subtype (Homo sapiens, UniProt P35408)) for record `CC(=O)c1cc(F)cc2c3c(n(Cc4ccc(Cl)cc4)c12)[C@@H](CC(=O)O)CC3` = > 20 µM

* * *

Consider the following pKi data for Prostaglandin E2 receptor EP4 subtype (Homo sapiens, UniProt P35408), collected from several reports.
# pKi = -log10(concentration in molar units)

Solved entries (count: 3):
O=C(O)C1CC1c1ccccc1-c1csc(-c2ccccc2OCc2ccccc2)c1 (centres undefined) | 6.52
Cc1cc(C(=O)O)cc(C)c1NC(=O)c1cc(-c2cccc(CO)c2)nc2ccccc12 | 7.28
C[C@H](NC(=O)c1cccc2c1N(Cc1cc(Br)cc(Br)c1)CC2)c1ccc(C(=O)O)cc1 | 9.48

Attention now shifts to the item below.
Value (pKi, Prostaglandin E2 receptor EP4 subtype (Homo sapiens, UniProt P35408)) for record O=C(O)CCCCCCN1C(=O)CC[C@@H]1/C=C/C(O)c1ccccc1 (some centres undefined) = 5.64

* * *

Consider the following pKi data for Prostaglandin E2 receptor EP4 subtype (Homo sapiens), collected from several reports.
# pKi = -log10(concentration in molar units)

Solved entries (count: 3):
O=C(NS(=O)(=O)c1ccccc1-c1ccc(CN2C(=O)c3ccccc3CCc3ccccc32)cc1)OCc1ccccc1 | 5.22
Cc1cccc(/C=C/Cc2ccccc2/C=C/C(=O)O)c1OCc1ccccc1.Cc1cccc(C/C=C/c2ccccc2/C=C/C(=O)O)c1OCc1ccccc1 (stereo in doubt; 2a/3a) | 5.70
CCCCC[C@H](O)/C=C/[C@H]1CCC(=O)N1CCCCCCC(=O)O | 8.35

Entry under test: `CCOc1c2c(c(OCC)c3ccccc13)C(=O)N(c1ccc(CC(=O)O)cc1)C2=O` . Its pKi was 6.80

Entry under test: `O=C(CCc1ccccc1-c1ccc(CSCCc2ccccc2)cc1)NS(=O)(=O)c1cccs1` . Its pKi was 5.96

Entry under test: `COc1cccc(CCCc2ccccc2/C=C/C(=O)O)c1OCc1ccccc1` . Its pKi was 5.37

Entry under test: `CCC#CC[C@H](C)[C@H](O)/C=C/[C@H]1CC(F)(F)C(=O)N1CCCc1ccc(C(=O)O)s1` . Its pKi was 8.92

Entry under test: `Cc1cccc(/C=C/Cc2ccccc2/C=C/C(=O)O)c1O` . Its pKi was 5.80

Entry under test: `O=C(O)CNc1ccccc1-c1csc(-c2ccccc2OCc2ccccc2)c1` . Its pKi was 6.34

Entry under test: `CCCCOc1c2c(c(OCCCC)c3ccccc13)C(=O)N(c1ccc(CC(=O)O)cc1)C2` . Its pKi was 5.70
